- Test system: THP-1
- procedureText: Cytotoxicity against human THP1 cells after 6 days by Alamar blue assay
- Format: cell-based
- cond: THP-1, 144 h
recordedEndpoint: pIC50
pIC50 here is simply -log10 of the concentration when that concentration is written in mol/L.

Here's what some known entries look like.
compound: O=[N+]([O-])c1ccc([C@@H]2CCO[P@@](=O)(N(CCCl)CCCl)N2)cc1
pIC50: 4.19
//
compound: NP(=O)(OCc1ccc([N+](=O)[O-])cc1Cl)N(CCCl)CCCl (stereo not given)
pIC50: 5.00

Could you share which pIC50 value was measured for "O=[N+]([O-])c1ccc([C@@H]2CCN[P@@](=O)(N(CCCl)CCCl)N2)cc1" ?
4.19

Could you share which pIC50 value was measured for "O=[N+]([O-])c1ccc([C@@H]2CCN[P@](=O)(N(CCCl)CCCl)N2)cc1" ?
4.19

Could you share which pIC50 value was measured for "O=[N+]([O-])c1ccc([C@@H]2CCN[P@](=O)(N(CCCl)CCCl)O2)cc1" ?
4.19

---

Quick list: IC50 per entry.
- Test system: THP-1
- procedureText: Cytotoxicity against human THP1 cells after 6 days by Alamar blue assay
- Type: cell-based
- cond: THP-1, 144 h
Give just the numeric value; µM need not be written.

Here's what some known entries look like.
compound: NP(=O)(OCc1c(F)cc([N+](=O)[O-])cc1F)N(CCCl)CCCl (stereo unspecified)
tgt: THP-1
units: µM
testResult: 6.9

compound: COc1cc([N+](=O)[O-])ccc1COP(N)(=O)N(CCCl)CCCl (stereo unspecified)
tgt: THP-1
units: µM
testResult: 33.5

compound: NP(=O)(OCc1ccc([N+](=O)[O-])cc1C(F)(F)F)N(CCCl)CCCl (stereo unspecified)
tgt: THP-1
units: µM
testResult: 19

compound: CC(C)(C(=O)N[C@@H]1CCN[P@](=O)(N(CCCl)CCCl)O1)c1ccccc1[N+](=O)[O-]
tgt: THP-1
units: µM
testResult: 64.8

compound: Cc1cc(COP(N)(=O)N(CCCl)CCCl)ccc1[N+](=O)[O-] (stereo unspecified)
tgt: THP-1
units: µM
testResult: 64.8

Could you share which IC50 value was measured for NP(=O)(OCc1ccccc1[N+](=O)[O-])N(CCCl)CCCl (stereo unspecified) ?
64.8

Could you share which IC50 value was measured for COc1cc(COP(N)(=O)N(CCCl)CCCl)ccc1[N+](=O)[O-] (stereo unspecified) ?
64.8

Could you share which IC50 value was measured for CC(OP(N)(=O)N(CCCl)CCCl)c1ccc([N+](=O)[O-])cc1 (stereo unspecified) ?
64.8

Could you share which IC50 value was measured for NP(=O)(OCc1ccc([N+](=O)[O-])cc1)N(CCCl)CCCl (stereo unspecified) ?
66

Could you share which IC50 value was measured for CC1CS(=O)(=O)CCN1/N=C/c1ccc([N+](=O)[O-])o1 (stereo unspecified) ?
64.8

Could you share which IC50 value was measured for NP(=O)(OCc1ccc([N+](=O)[O-])c(F)c1)N(CCCl)CCCl (stereo unspecified) ?
17.6

---

- procedureText: Therapeutic index, ratio of IC50 against human THP1 cells to IC50 against Trypanosoma brucei
- Assay type: cell-based, THP-1
- cond: read-out: Ratio IC50
recordedEndpoint: selectivity ratio
Give the figure by itself; no unit, no explanation.

molecule: NP(=O)(OCc1ccc([N+](=O)[O-])c(F)c1)N(CCCl)CCCl (centres undefined)
selectivity ratio: 6
--
molecule: O=[N+]([O-])c1ccc([C@@H]2CCN[P@@](=O)(N(CCCl)CCCl)N2)cc1
selectivity ratio: 36

Could you share which selectivity ratio value was measured for "O=[N+]([O-])c1ccc([C@@H]2CCN[P@](=O)(N(CCCl)CCCl)N2)cc1" ?
36

Could you share which selectivity ratio value was measured for "CC(C)(C(=O)N[C@@H]1CCN[P@@](=O)(N(CCCl)CCCl)O1)c1ccccc1[N+](=O)[O-]" ?
36

Could you share which selectivity ratio value was measured for "O=[N+]([O-])c1ccc([C@@H]2CCN[P@@](=O)(N(CCCl)CCCl)O2)cc1" ?
36

Could you share which selectivity ratio value was measured for CC1CS(=O)(=O)CCN1/N=C/c1ccc([N+](=O)[O-])o1 (centres undefined) [NIFURTIMOX] ?
36

Could you share which selectivity ratio value was measured for COc1cc([N+](=O)[O-])ccc1COP(N)(=O)N(CCCl)CCCl (centres undefined) ?
28

Could you share which selectivity ratio value was measured for "O=[N+]([O-])c1ccc([C@@H]2CCO[P@@](=O)(N(CCCl)CCCl)N2)cc1" ?
36

Could you share which selectivity ratio value was measured for NP(=O)(OCc1ccccc1[N+](=O)[O-])N(CCCl)CCCl (centres undefined) ?
36

From: ChEMBL document CHEMBL1255389
